- tgt: LIGHT without residues 81-84, stably expressed on EL4 cells (EL4-NC-LIGHT)
- measurement.description: cell-based or functional assay
metric: IC50, inhibition of IL-8 secretion, HT-29 + EL4-NC-LIGHT cells (nM)
Numeric only. Scale: nM

Consider 3D12_var9 (antibody, V domains shown) VH: QVQLVQSGAEVKKPGASVKVSCKASDYTFTDSEIHWVRQAPGQGLEWIGEIDPETGGTAYNQKFKGRATLTADKSTSTAYMELSSLRSEDTAVYYCSRETDYFFDYWGQGTLVTVSS VL: DIQMTQSPSSLSASVGDRVTITCGASENIYGALNWYQQKPGKAPKLLIYGATNLADGVPSRFSGSGSGRDYTLTISSLQPEDVATYYCQNVLSTPWTFGQGTKLEIKR . Its measured IC50, inhibition of IL-8 secretion, HT-29 + EL4-NC-LIGHT cells is 0.71
